# Tested on: LOC_OS02G54510-cb004
# testMethodNotes: thermal shift delta Tm vs DMSO control; higher = stronger stabilization (binding);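 note: purified Escherichia coli-expressed rice kinase domain construct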
# testConditions: 12.5 µM; protein concentration 2 µM
reportedProperty: thermal shift delta Tm
Could you give the number and then its unit, please?

The following compounds each have a reported value; give each one's thermal shift delta Tm.
1. C[C@@H](Oc1cc(-c2cnn(C3CCNCC3)c2)cnc1N)c1c(Cl)ccc(F)c1Cl
2. Cc1ccc(NC(=O)c2cccc(C(C)(C)C#N)c2)cc1Nc1ccc2ncn(C)c(=O)c2c1
3. Oc1c2ccccc2c2c3c(cccc13)N=N2
4. CS(=O)(=O)c1cccc(CNc2nc(Nc3ccc4c(c3)CCC(=O)N4)ncc2C(F)(F)F)c1
5. COc1cc2/c(=N/c3ccc(Br)cc3F)nc[nH]c2cc1OCC1CCN(C)CC1 [Vandetanib (ZD6474)]

1. 0.63 °C
2. 1.43 °C
3. 0.51 °C
4. 1.28 °C
5. 0.98 °C

The following compounds each have a reported value; give each one's thermal shift delta Tm.
1. Cc1ccc(NC(=O)c2ccc(CN3CCN(C)CC3)cc2)cc1Nc1nc(-c2cccnc2)cs1
2. COc1ccc2c(c1)[C@]1(C[C@H]1c1ccc3c(/C=C/c4ccc(CN5C[C@@H](C)O[C@@H](C)C5)cc4)n[nH]c3c1)C(=O)N2
3. CCN(CC)CCNC(=O)c1c(C)[nH]c(/C=C2\C(=O)Nc3ccc(F)cc32)c1C [Sunitinib Malate]
4. COc1cc(Nc2ncc(F)c(Nc3ccc4c(n3)NC(=O)C(C)(C)O4)n2)cc(OC)c1OC [R406 (free base)]
5. O=C1NC(=O)/C(=C/c2ccc(-c3ccc(F)cc3O)o2)S1
6. CC(C)c1ccc2oc3nc(N)c(C(=O)O)cc3c(=O)c2c1

1. 0.33 °C
2. -0.19 °C
3. 0.41 °C
4. 3.74 °C
5. 0.67 °C
6. 0.56 °C

The following compounds each have a reported value; give each one's thermal shift delta Tm.
1. COc1ncc(-c2cc(-c3ncc(CN4C[C@@H](C)O[C@@H](C)C4)o3)c3cn[nH]c3c2)cc1NS(C)(=O)=O
2. NC(=O)c1ccc(N(C(N)=O)c2c(F)cccc2F)nc1-c1ccc(F)cc1F
3. COc1ccc(COc2ccc(Cc3cnc(N)nc3N)cc2OC)cc1
4. CC[C@H](CO)Nc1nc(NCc2ccccc2)c2ncn(C(C)C)c2n1 [Roscovitine (Seliciclib,CYC202)]
5. COc1ccc(-c2ccc3ncc4c(c3c2)n(-c2ccc(N3CCNCC3)c(C(F)(F)F)c2)c(=O)n4C)cn1
6. COc1ccc(-c2ccc3c(N4CCOC[C@@H]4C)nc(N4CCOC[C@@H]4C)nc3n2)cc1CO

1. 0.25 °C
2. -0.06 °C
3. 0.05 °C
4. 0.11 °C
5. 0.44 °C
6. 0.38 °C

###

# Test system: LOC_OS02G14120-cb001
# testMethodNotes: thermal shift delta Tm vs DMSO control; higher = stronger stabilization (binding)
# testConditions: 12.5 µM; protein concentration 2 µM
Provide the recorded thermal shift delta Tm for the entries that follow.
Numbers only, in °C.

The following compounds each have a reported value; give each one's thermal shift delta Tm.
1. COc1cccc(-n2c(=O)[nH]c3cc(Cl)n(-c4ccc(-c5cccc(OC)c5O)cc4)c3c2=O)c1
2. Cc1c(C(=O)N2CCOc3ccc(-c4ccc(N)nc4)cc3C2)ccc(S(C)(=O)=O)c1F
3. CC(C)S(=O)(=O)c1ccc2nccc(Nc3ccc4scnc4c3)c2c1

1: 0.81; 2: 0.74; 3: 1.58

The following compounds each have a reported value; give each one's thermal shift delta Tm.
1. CCOc1cn(-c2ccc(F)cc2C)nc1C(=O)Nc1ccc(Oc2ccnc3cc(OC)c(OC)cc23)c(F)c1
2. C#Cc1cccc(Nc2ncnc3cc(OCCOC)c(OCCO)cc23)c1

1: 2.96; 2: 4.33
